# measurement-notes: Half life in 80% human plasma at 10^-5 M by HPLC analysis
# Type: ADME, cell-free
parameter-measured: half-life at 10 µM (min)
Reply numerically in min, unit not repeated.

Please look at this molecule and report its half-life at 10 µM: `CC(=O)N[C@@H](Cc1ccc(O)cc1)C(=O)N(C)/N=N/c1ccc(C#N)cc1`
73.8

Using known records, supply half-life at 10 µM for `CC(=O)c1ccc(/N=N/N(C)C(=O)[C@H](Cc2ccc(O)cc2)NC(=O)OC(C)(C)C)cc1`
572

* * *

# measurement-notes: Octanol-phosphate buffer apparent partition coefficient, log P of the compound at pH7.4 after 30 mins by HPLC analysis
# Assay type: physicochemical
# conditions-used: pH 7.4
parameter-measured: logD at 0.5 h

The cases that follow already have their logD at 0.5 h on record.
{"structure-notation": "CCOC(=O)c1ccc(/N=N/N(C)C(=O)[C@H](Cc2ccc(O)cc2)NC(C)=O)cc1", "logD at 0.5 h": 2.96}
{"structure-notation": "COC(=O)c1ccc(/N=N/N(C)C(=O)[C@H](Cc2ccc(O)cc2)NC(C)=O)cc1", "logD at 0.5 h": 2.12}
{"structure-notation": "CN(/N=N/c1ccc(C#N)cc1)C(=O)[C@H](Cc1ccc(O)cc1)NC(=O)OC(C)(C)C", "logD at 0.5 h": 3.9}
{"structure-notation": "CC(=O)N[C@@H](Cc1ccc(O)cc1)C(=O)N(C)/N=N/c1ccc(C#N)cc1", "logD at 0.5 h": 2.14}
{"structure-notation": "CC(=O)N[C@@H](Cc1ccc(O)cc1)C(=O)N(C)/N=N/c1ccc(Br)cc1", "logD at 0.5 h": 3.36}

Please look at this molecule and report its logD at 0.5 h: `CC(=O)N[C@@H](Cc1ccc(O)cc1)C(=O)N(C)/N=N/c1ccc(C(C)=O)cc1`
2.33

Specify reported logD at 0.5 h for the molecule shown: `CC(=O)N[C@@H](Cc1ccc(O)cc1)C(=O)N(C)/N=N/c1ccc(C(N)=O)cc1`
1.27

Kindly indicate its recorded logD at 0.5 h. Item: `CC(=O)c1ccc(/N=N/N(C)C(=O)[C@H](Cc2ccc(O)cc2)NC(=O)OC(C)(C)C)cc1`
3.85

* * *

Catalogue of half-life at 10 µM values
# measurement-notes: Half life in 80% human plasma at 10^-5 M by HPLC analysis
# Type: ADME, cell-free
Give a bare numeral; the unit h is implied.

Below, 4 molecules whose answers are already recorded.
{"structure-notation": "COC(=O)c1ccc(/N=N/N(C)C(=O)[C@H](Cc2ccc(O)cc2)NC(C)=O)cc1", "units-of-measure": "h", "quantitative-result": 2.8}
{"structure-notation": "CC(=O)N[C@@H](Cc1ccc(O)cc1)C(=O)N(C)/N=N/c1ccc(C(C)=O)cc1", "units-of-measure": "h", "quantitative-result": 1.41}
{"structure-notation": "CC(=O)N[C@@H](Cc1ccc(O)cc1)C(=O)N(C)/N=N/c1ccc(Br)cc1", "units-of-measure": "h", "quantitative-result": 6.8}
{"structure-notation": "CCOC(=O)c1ccc(/N=N/N(C)C(=O)[C@H](Cc2ccc(O)cc2)NC(C)=O)cc1", "units-of-measure": "h", "quantitative-result": 5.32}

Identify half-life at 10 µM associated with the molecule `CN(/N=N/c1ccc(C#N)cc1)C(=O)[C@H](Cc1ccc(O)cc1)NC(=O)OC(C)(C)C`
8.1

Respond only with half-life at 10 µM recorded for `CC(=O)N[C@@H](Cc1ccc(O)cc1)C(=O)N(C)/N=N/c1ccc(C(N)=O)cc1`
5.19
